Values compiled from patent US20220272975A1.

test: in vitro; details: H. sonorensis, whole H. sonorensis nematodes (non-target entomopathogenic)
Assay Readout: LC50

Just so you know, measured LC50 for "O=C(O)CC/C=C/c1ccccc1" came out at > 400 µg/mL

---

assay: in vitro; details: H. bacteriophora
Assay Readout: LC50

Just so you know, measured LC50 for "O=C(O)CC/C=C/c1ccccc1" came out at > 400 µg/mL
